All figures here come from PubChem BioAssay (NCI).

Test: NCI Yeast Anticancer Drug Screen. Data for the sgs1 mgt1 strain (AID 161);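 further: 0% = growth of cultures given vehicle only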
Conditions: S. cerevisiae sgs1 mgt1 strain, at 50.0 µM
About 79,000 compounds went through this panel and 15% of them were active in at least one assay; those are over-represented in the sample as a whole. Active and inactive are the calls of the source. No stated cut-off is given here; in the data, active means growth inhibition above about 70%; inactive means the rest.
Possible outcomes: active, inactive

COc1ccc(Cl)cc1NC(C)=O: inactive
Nc1ccc(F)c(F)c1: inactive
C=C1CCC1: inactive
O=C1OC(c2cccc([N+](=O)[O-])c2)=N/C1=C\c1ccccc1: inactive
S=C(Nc1ccccc1)c1ccccc1: inactive
Cc1ncc(C(=O)O)c(CO)c1N: inactive
Nc1ccc(-c2ccccc2)cc1[N+](=O)[O-]: inactive
COc1c(C=O)c2c(c(OC)c1OC)-c1ccc(OC)c(=O)cc1[C@@H](NC(C)=O)CC2: inactive
CN1CCc2ccccc2C1Cc1cc(OCc2ccccc2)ccc1N (centres undefined): inactive
CCCCCCCCCCCCCCCC[N+](C)(C)CC#CCCl: inactive
CC(C)(C)Oc1cc(F)c(C(C)(C)C)cc1C(C)(C)C: inactive
COc1ccc(/C=N/NC(=O)c2ccccc2NC(=O)c2ccccc2Cl)cc1: inactive
CC(=O)NCC1CCCO1 (centres undefined): inactive
CC1=CC(C)(C)Nc2ccccc21: inactive
COc1cc2cc3c4cc(OC)c(OC)cc4cc[n+]3cc2cc1OC: inactive
Nc1ncnc2c1nc(-c1ccccc1)n2C1OC(CO)C(O)C1O (centres undefined): inactive
NC(CCNCCc1ccccc1)CNCCc1ccccc1 (centres undefined): inactive
O=[N+]([O-])c1ccc(OS(=O)(=O)c2ccccc2)cc1: inactive
COc1ccccc1NS(=O)(=O)c1ccc2ncn(NS(=O)(=O)c3ccc(Cl)cc3)c(=O)c2c1: inactive
CCCCSC1=NCCN1: inactive
c1cc(-c2cn3c(n2)SCC3)ccn1: inactive
COc1nc2c(c(O)cn2C2OCC(OC(C)=O)C(OC(C)=O)C2OC(C)=O)c(=O)n1C (centres undefined): inactive
c1ccc2c(c1)ncc1cc3c(cc12)[nH]c1ccccc13: inactive
COC(=O)c1cc(-c2ccc(N)cc2)c2c(=O)n(-c3ccccc3)[nH]c2n1: inactive
COc1cc(/C=N/NC(=O)C(=O)N/N=C/c2cc(OC)c(OC)c(OC)c2)cc(OC)c1OC: inactive
O=C1C2CCCC3CCCC(C(=O)N1NC1CCCCC1)C32 (centres undefined): inactive
COC(=O)C(C)CC(C)C(=O)OC (centres undefined): inactive
BrC=C1c2ccccc2-c2ccccc21: inactive
N#Cc1ccc(Oc2ccc(C#N)cc2)cc1: inactive
CC1(C)OC2C(=O)O[C@H](CO)C2O1 (some centres undefined): inactive
COC1c2ccccc2C(C)(C)c2nc3ccccc3cc21 (centres undefined): inactive
C=CCNC(=O)CS(=O)(=O)c1ccc(C)cc1: inactive
CC(C)=C1CC(C)(C)N=C1CCN1CCOCC1: inactive
CN1CC(O)CN(C)C1=S: inactive
O=C(Nc1ccccc1CCl)Nc1ccccc1CCl (tested in a mixture with another compound): inactive
COc1cccc(Nc2nc(N)nc(N)c2N)c1: inactive
CCOC(=O)C(=[N+]=[N-])C(=O)c1ccc(OS(C)(=O)=O)c(OS(C)(=O)=O)c1: inactive
COc1ccccc1/C=C(\C)C(=O)O: inactive
O=C(NCCCCCCNC(=O)N1CCCCC1)c1cccnc1: inactive
O=C(Nc1ccc(Br)cc1)C(=O)C(C(=O)c1ccccc1F)C1OC(=O)c2ccccc21 (centres undefined): inactive
CO[C@@]12CC(=O)/C(=C(O)\C=C\c3ccccc3)C(=O)[C@]1(OC)Cc1ccccc1O2: inactive
O=C(O)C1CCCCC1C(=O)Nc1cccc2ccccc12 (centres undefined): inactive
OCCOCC#CCOCCO: inactive
CCCc1c(OC)c(=O)c2c(OC)cc(OC)c3c4c(OC)cc(OC)c5c(=O)c(OC)c(CCC)c(c1c23)c54: active
Cc1cc2oc(C)c(S(=O)(=O)NC(=O)Nc3ccc(Cl)cc3)c(=O)c2c(=O)o1: inactive
NC(=O)c1[nH]cnc1N: inactive
CC1(C)S[C@H](c2ccccc2C(=O)O)N[C@@H]1CC(=O)O: inactive
O=C1C2C3(CCl)C1C23CCl (centres undefined): inactive
COC(=O)C(C(=O)C(=O)Nc1ccccc1C(C)=O)c1nc2ccc(Cl)cc2[nH]c1=O (centres undefined): inactive

* * *

Assay: NCI Yeast Anticancer Drug Screen. Data for the cln2 rad14 strain (AID 165);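 further: 0% = growth equal to vehicle treated cultures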
Details: S. cerevisiae cln2 rad14 strain, at 50.0 µM, stronger effect = higher value
Compounds without any hit were thinned out: in the full panel of roughly 79,000, 15% have a hit.
REPORTED_PROPERTY: growth inhibition (%)

O=C1/C(=C/c2ccccc2)SC(=S)N1C1OC(CO)C(O)C(O)C1O (configuration not stated): 8.95
CC(C)=CCCC(C)(O)C1CC=C(C)CC1 (configuration not stated): 3.05
CCOC(=O)C1C/C2=C(/CCCCCCCCCC2)SCCCS1 (configuration not stated): 2.15
c1ccc2c3c(ccc2c1)OCCOCCOc1ccc2ccccc2c1-3: 8.5
Cc1ccccc1NC(=O)CC(=O)NNC(Sc1ccccc1)c1cc(N=Nc2ccc(Br)cc2)ccc1O (configuration not stated): -3.95
Nc1c(Cl)cccc1C(=O)c1ccccc1C(=O)O: -14.8
CCCCCc1c(-c2n[nH]c(C)c2CCCCC)n[nH]c1C: -7.85
O=C(NCCNCCO)N/N=C/c1ccccc1: -7.75
O=C(NO)c1ccc(O)c(O)c1: -8.25
COc1cc(O)c(C(C)c2ccccc2)cc1N=O (configuration not stated): 4.15
O=C(O)/C=C/C(=O)Nc1ccc(Cl)cc1C(=O)c1ccccc1: 0.4
NC(CSS(=O)(=O)O)=NCCCCC1CCCCC1: -6.25
COC(=O)c1cc(OC)c2cccnc2c1Nc1ccccc1: 0.6
CN(C)c1noc2c1c(=O)n(C)c(=O)n2C: -12.1
N#CCCC(=O)c1ccccc1: -2.65
C[n+]1c(I)ccc2ccccc21: 15
OC(CNc1ccccn1)c1ccccc1 (configuration not stated): 29.2
CC1(C)Cc2[nH]c3ccccc3c(=O)c2-c2nc3ccccc3c(=O)n21: -35.6
CC(C)=CCCc1ccc2c(c1)C(=O)c1cc3c(cc1C2=O)OCO3: 9.6
Oc1cccc2c(NC(=S)Nc3ccccc3)cccc12: 15.5
COc1ccc(C(=C(I)c2ccccc2)c2ccc(OC)cc2)cc1: -15.9
O=c1[nH]c(-c2ccc(Cl)cc2)cs1: -5.65
CN1CCN=C(C(=O)O)C=C1c1ccccc1O: -28.2
CC(=O)Nc1ccc(/C=N/Nc2nc3ccccc3s2)cc1: -50.4
CC1C(=O)OCC2=CCN3CCC(OC(=O)C(C)C1(C)O)C23 (configuration not stated): 8.05
O=C1CC2C(=O)N(Cc3ccccc3)C1C(S(=O)(=O)c1ccccc1)C2S(=O)(=O)c1ccccc1 (configuration not stated): 26.9
CC(O)C1OC(O)C2OC(C)(C)OC12 (configuration not stated): -4.35
CC(C)(C)NC(=O)NC(C)(C)C: 14.8
O=c1oc2ccccc2c(O)c1C(c1cc(OCc2ccccc2)cc(OCc2ccccc2)c1)c1c(O)c2ccccc2oc1=O: -19.4
C=C(C)CBr: 5.35
CCOC(=O)C1CCC(=O)N1Cc1c[nH]c2ccccc12 (configuration not stated): 1
O=c1ccn(C2OC(CF)C(O)C2O)c(=O)[nH]1 (configuration not stated): 9.05
Cc1cc(C)nc(NC(=O)c2cc(C(=O)O)c(C(=O)Nc3cc(C)cc(C)n3)cc2C(=O)O)c1: -27.6
FC(F)Cc1ccccc1: -7.15
CCOC(=O)NC(=O)c1cn(CCN2CCN(C(=O)NCCCCCCNC(=O)N3CCN(CCn4cc(C(=O)NC(=O)OCC)c(=O)n(CCN(CC)CC)c4=O)CC3)CC2)c(=O)n(CCC(CC)CC)c1=O: -20.9
NC(=S)N/N=C\c1nccc2ccc(N)cc12: -46.8
Cc1nc(-n2nc(-c3ccccc3)cc2-c2ccccc2)sc1C(/C=C/c1ccc([N+](=O)[O-])cc1)=N/NC(=O)c1ccncc1: -24.7
Cc1ccccc1C(=O)c1ccccc1Cc1cccc2ccccc12: 1.1
CCCNc1nc2c(s1)c1c(O)c3c(O)c(C)c4c(c32)C(=O)C(C)(O/C=C\C(OC)C(C)C(OC(C)=O)C(C)C(O)C(C)C(O)C(C)/C=C/C=C(/C)C(=O)N1)O4 (configuration not stated): 10.2
O=C(Nc1ccc(Cl)cc1Cl)C(=O)C(C(=O)c1ccncc1)C1OC(=O)c2ccccc21 (configuration not stated): 23.4
Cn1c(=O)c2c(nc(CCC(N)=O)n2C)n(C)c1=O: -14.8
Cc1cc2c(=O)cc(-c3ccccc3)oc2c(C(=O)O)c1C: -19.7
CCOCC(=O)O: -32.2
S=C(S)N(Cc1ccccc1)Cc1ccccc1: -0.7
Nc1ccc(Cn2cnc3c(=O)[nH]cnc32)cc1: -45.9
CCCN=C(NC(=O)c1ccc(Cl)cc1)SC: -6.7
CN(C)C1=C(c2ccccc2)C(=O)C(c2ccccc2)=C1c1ccccc1: -32.3
